- Test system: SR
- procedure details: Cytotoxicity against human SR cells assessed as cell viability at 10 uM incubated for 48 hrs by sulforhodamine B assay relative to control
- Type: functional
- conditions: read-out: Activity
assay metric: viability at 10 µM

Query: Quick check: viability at 10 µM on SR, item O=S(=O)(NCCNc1nccc(-c2c(-c3cccc(F)c3)nc3sccn23)n1)c1ccc(C(F)(F)F)cc1 ?
Response: 89.4%

Further cases:
Query: Quick check: viability at 10 µM on SR, item O=S(=O)(NCCNc1nccc(-c2c(-c3cccc(F)c3)nc3sccn23)n1)c1ccccc1 ?
Response: 29.2%

Query: Next compound: O=C(NCCNc1nccc(-c2c(-c3cccc(F)c3)nc3sccn23)n1)c1ccccc1
Response: 29.4%

Query: Next compound: O=C(NCCCNc1nccc(-c2c(-c3cccc(F)c3)nc3sccn23)n1)c1ccc(F)cc1
Response: 99.8%

Query: Next compound: O=C(NCCNc1nccc(-c2c(-c3cccc(F)c3)nc3sccn23)n1)c1c(F)cccc1F
Response: 26%

Query: Next compound: O=S(=O)(NCCCNc1nccc(-c2c(-c3cccc(F)c3)nc3sccn23)n1)c1ccc(F)cc1
Response: 95.8%
